# Tested target: Cdk2(H71C) (C177A) (Homo sapiens, UniProt P24941, C177A/H71C)
# Construct: poly-histidine; made in house; host or cells: E. coli
# Assay info: Kinetic thiol consumption assay with Cdk2 mutant H71C
# Type: binding
# Design: key: rate constant with Cdk2 ÷ rate constant with model thiol (fold)
# Experimental conditions: Cdk2 H71C, additional mutation C177A
Measured Rate enhancement, Cdk2 H71C values are reported for all entries that follow.
Keep it simple and answer with nothing but the number.

Molecule: C=CC(=O)NC(C)c1cc(OC)c(OC)c(OC)c1 (stereo not drawn)
Rate enhancement, Cdk2 H71C: 0.8384

Molecule: C=CC(=O)NCCNC(=O)c1ccccc1
Rate enhancement, Cdk2 H71C: 1.033

Molecule: O=C(CCl)NCCc1c[nH]c2ccccc12
Rate enhancement, Cdk2 H71C: 0.852

Molecule: C=CC(=O)N1CCC2(CC1)NC(=O)N(C)C2=O
Rate enhancement, Cdk2 H71C: 0.07112

Prompt: # Rate enhancement, Cdk2 H71C lookup, item `C=CC(=O)Nc1nc2cc3c(cc2s1)OC(F)(F)O3`
Response: 0.1797

Prompt: Same read-out for `C=CC(=O)NC1(C(N)=O)CCCCC1` ?
Response: 0

###

# Tested target: human cyclin-dependent kinase 2 (Cdk2) (Homo sapiens)
# Construct: poly-histidine; made in house; host or cells: E. coli
# Assay info: Kinetic thiol consumption assay with wild type Cdk2 (C177)
# Format: binding
# Set-up: key: k(Cdk2) divided by k(model thiol)
# Experimental conditions: Cdk2 WT, no additional mutations
# Text: A library of 120 acrylamides was screened against a) human cyclin-dependent kinase 2 (Cdk2, which contains one surface exposed cysteine residue—C177), prepared by cloning cDNA into the pRSETA bacterial expression vector to generate a poly-histidine tagged Cdk2 fusion that was purified from E. coli using standard techniques, and b) a model thiol (specific details are given below). […] Fluorescence measurements were normalized against a DMSO/thiol only control and plotted against time. […]
Attribute measured: Rate enhancement, Cdk2 WT
Keep it simple and answer with nothing but the number.

Smiles entry: C=CC(=O)NCCc1c(-c2ccccn2)[nH]c2ccccc12
Rate enhancement, Cdk2 WT: 0.08945

Prompt: # Rate enhancement, Cdk2 WT lookup, item `C=CC(=O)Nc1[nH]nc(C2CC2)c1-c1ccc2c(c1)OCO2`
Response: 2.081

Prompt: Same read-out for `C=CC(=O)N(C(=O)C=C)c1c2ccccc2n2c(C)nc3ccccc3c12` ?
Response: 0.4371

###

# Tested target: Cdk2(H71C) (C177A) (Homo sapiens, UniProt P24941, C177A/H71C)
# Construct: poly-histidine; made in house; host or cells: E. coli
# Assay info: Kinetic thiol consumption assay with Cdk2 mutant H71C
# Type: binding
# Experimental conditions: Protein: Cdk2; cysteine position H71C; additional mutation C177A; in h^-1
Measured Rate constant with Cdk2 H71C values are reported for all entries that follow.

Previously resolved entries follow.
Compound: C=CC(=O)N1CCCCCC1C/C=C/c1ccccc1 (stereo not shown)
Tested target: Cdk2(H71C) (C177A) (Homo sapiens, UniProt P24941, C177A/H71C)
Test result: 0.01

Compound: C=CC(=O)NC1(c2noc(C)n2)CCCCCC1
Tested target: Cdk2(H71C) (C177A) (Homo sapiens, UniProt P24941, C177A/H71C)
Test result: 0.02429

Compound: O=C(CCl)N1CCSc2ccccc21
Tested target: Cdk2(H71C) (C177A) (Homo sapiens, UniProt P24941, C177A/H71C)
Test result: 0.1289

Prompt: Hi! What's the reported Rate constant with Cdk2 H71C for `C=CC(=O)NCc1ccc(F)cc1` on Cdk2(H71C) (C177A) (Homo sapiens, UniProt P24941, C177A/H71C)?
Response: 3.908E−14

Prompt: Same read-out for `O=C(CCl)NCCc1c[nH]c2ccccc12` ?
Response: 0.002158

Prompt: Same read-out for `O=C(c1ccccc1)[C@@H]1O[C@H]1c1ccccc1` ?
Response: 0.02873

Prompt: Same read-out for C=CC(=O)N1CCCC(N2C(=O)CC3(CCCC3)C2=O)C1 (stereo not shown) ?
Response: 0.001749

Prompt: Same read-out for `C=CC(=O)N1CCN(c2cc(N3CCOCC3)ncn2)CC1` ?
Response: 0.007227

Prompt: Same read-out for `Cn1cc(S(=O)(=O)N2CCOCC2)cc1C(=O)NC(=O)CCl` ?
Response: 3.825E−14

Prompt: Same read-out for `C=CC(=O)N1CCN(C(=O)OC(C)(C)C)c2ccccc21` ?
Response: 0.02618

Prompt: Same read-out for `C=CC(=O)NCCc1c[nH]c2ccccc12` ?
Response: 0.003601

Prompt: Same read-out for `C=CC(=O)N1CC(Cc2ccccc2)C1` ?
Response: 0.3655

Prompt: Same read-out for `C=CC(=O)NCC1(NC(=O)OC(C)(C)C)CCCCC1` ?
Response: 0.002426

###

# Tested target: Cdk2(N272C) (C177A) (Homo sapiens, UniProt P24941, C177A/N272C)
# Construct: poly-histidine; made in house; host or cells: E. coli
# Assay info: Kinetic thiol consumption assay with Cdk2 mutant N272C
# Type: binding
# Experimental conditions: Protein: Cdk2; cysteine position N272C; additional mutation C177A; in h^-1
Assign true to entries whose Rate constant with Cdk2 N272C meets or exceeds 0.01; assign false to the rest.

Compound: C=CC(=O)N1CCN(c2ccccc2C(N)=O)CC1 [EL-1155]
Label value: true

Compound: C=CC(=O)N1CCN(c2ccccc2[N+](=O)[O-])CC1 [EL-1134]
Label value: false

Compound: Cn1cc(S(=O)(=O)N2CCOCC2)cc1C(=O)NC(=O)CCl [EN002]
Label value: false

Compound: C=CC(=O)NCc1ccc(-c2ccccc2)cc1 [EL-1050]
Label value: false

Compound: C=CC(=O)N(c1cccc2ncccc12)C1CCC1 [CA-032/228]
Label value: true

Prompt: Please check the record CC1CN(C(=O)CCl)CC(C)O1 (stereo not drawn) [EN012] and state if its Rate constant with Cdk2 N272C is at or above 0.01.
Response: true

Prompt: Same read-out for C=CC(=O)N1CCCC1CC1CC2CCC1C2 (stereo not drawn) [CA-087] ?
Response: false

Prompt: Same read-out for C=CC(=O)N1CCC(c2nnc3n2CCC3)CC1 [CA-106] ?
Response: true

Prompt: Same read-out for C=CC(=O)N1CC2CC2C1 (stereo not drawn) [CA-211] ?
Response: true

Prompt: Same read-out for C=CC(=O)N1CC2CCCCCCC21 (stereo not drawn) [CA-098] ?
Response: true

Prompt: Same read-out for O=S1(=O)C=CC(Br)C1 (stereo not drawn) [EN010] ?
Response: true

Prompt: Same read-out for C=CC(=O)Nc1ccc2nc(C)[nH]c2c1 [EL-1109] ?
Response: false

Prompt: Same read-out for C=CC(=O)N1CCc2sccc2C1c1cccs1 (stereo not drawn) [CA-056] ?
Response: true

Prompt: Same read-out for C=CC(=O)N1CCC2(CC1)CC2C(=O)OC (stereo not drawn) [CA-039] ?
Response: false

Prompt: Same read-out for C=CC(=O)Nc1cccc2ncccc12 [CA-012] ?
Response: true

Prompt: Same read-out for C=CC(=O)N1CCN(Cc2ccc(Cl)cc2)CC1 [EL-1183] ?
Response: false

Prompt: Same read-out for C=CC(=O)N(c1ccc2c(c1)OCCO2)C1CC1 [CA-167] ?
Response: false

Prompt: Same read-out for C=CC(=O)NCCNC(=O)c1ccccc1 [CA216] ?
Response: true

Prompt: Same read-out for C=CC(=O)N1CCC2(CC1)NC(=O)C1(CCCCC1)N2 [CA-129/235] ?
Response: false

Prompt: Same read-out for C=CC(=O)N1CCC2(CC1)NC(=O)N(C)C2=O [CA-046] ?
Response: false

Prompt: Same read-out for C=CC(=O)N(C)C1C2CCOC2C1(C)C (stereo not drawn) [CA-182] ?
Response: false

Prompt: Same read-out for C=CC(=O)Nc1cccc(C(F)(F)F)c1 [EL-1007] ?
Response: false

Prompt: Same read-out for C=CC(=O)NC1C2C3CCC(C3)C12 (stereo not drawn) [CA-097] ?
Response: false

Prompt: Same read-out for C=CC(=O)N1CCN(C(=O)OC(C)(C)C)CC1 [CA-029] ?
Response: false

Prompt: Same read-out for C=CC(=O)N1CCC2CCC(C1)N2C (stereo not drawn) [CA-143] ?
Response: true

Prompt: Same read-out for C=CC(=O)N1CCCC1c1ccc(OC)cc1 (stereo not drawn) [EL-1062] ?
Response: false

Prompt: Same read-out for C=CC(=O)N1CC(OCCN(CC)CC)C1 [CA-145] ?
Response: false

Prompt: Same read-out for C=CC(=O)Nc1ccc(C(=O)OC)cc1 [CA-028] ?
Response: true
